Assay text: in vitro
Design: species or system HB2, HEK293
Condition summary: human, ccd841 cells

Compound: CS(=O)(=O)c1ccccc1NC(=O)CCl
Units of measure: %
viability at 48 h, 10 µM: 98.2

Compound: Cc1sc(NC(=O)CCl)c(C#N)c1C
Units of measure: %
viability at 48 h, 10 µM: 55.2

Compound: N#Cc1cnn(-c2ccccc2)c1NC(=O)CCl
Units of measure: %
viability at 48 h, 10 µM: 81

Compound: CN(Cc1nc2ccccc2s1)C(=O)CCl
Units of measure: %
viability at 48 h, 10 µM: 42.8

Compound: O=C(CCl)NNC(=O)CC1CCS(=O)(=O)C1 (centres unmarked)
Units of measure: %
viability at 48 h, 10 µM: 100

Compound: NC(=O)c1ccccc1NC(=O)CCl
Units of measure: %
viability at 48 h, 10 µM: 66.1

Compound: C=CC(=O)N1CCN(C(=O)C23CC4CC(CC(C4)C2)C3)CC1
Units of measure: %
viability at 48 h, 10 µM: 103

Compound: O=C(CCl)N1CCN(C(=O)Nc2ccccc2)CC1
Units of measure: %
viability at 48 h, 10 µM: 56.6

Compound: C=CC(=O)N1CCCC(CC(=O)OC(C)(C)C)CC1 (centres unmarked)
Units of measure: %
viability at 48 h, 10 µM: 104

Compound: CC(C)N(C(=O)CCl)C1CCCC1
Units of measure: %
viability at 48 h, 10 µM: 102

Compound: N#Cc1c2c(n(-c3ccccc3)c1NC(=O)CCl)CCCC2
Units of measure: %
viability at 48 h, 10 µM: 53.9

Compound: CC(NC(=O)CCl)C(=O)O (centres unmarked)
Units of measure: %
viability at 48 h, 10 µM: 115

Compound: CN(CC1COc2ccccc2O1)C(=O)CCl (centres unmarked)
Units of measure: %
viability at 48 h, 10 µM: 52.5

Compound: CN(C(=O)CCl)C(C)(C)C#N
Units of measure: %
viability at 48 h, 10 µM: 92.5

Compound: CC(C)N(C(=O)CCl)C(C)C
Units of measure: %
viability at 48 h, 10 µM: 106

Compound: O=C(CCl)NCc1cccs1
Units of measure: %
viability at 48 h, 10 µM: 81.3

Compound: Cc1c(Cl)cccc1NC(=O)CCl
Units of measure: %
viability at 48 h, 10 µM: 48.1

Compound: Cc1ccc(C(=O)O)cc1NC(=O)CCl
Units of measure: %
viability at 48 h, 10 µM: 108

Compound: Cl.O=C(CCl)N1CCN(Cc2cccc3ccccc23)CC1
Units of measure: %
viability at 48 h, 10 µM: 21.7

Compound: C=CC(=O)N1CCCC(c2cnn(C)c2)C1 (centres unmarked)
Units of measure: %
viability at 48 h, 10 µM: 115

Compound: CC(C)(C)OC(=O)N1CCN(C(=O)CCl)CC1
Units of measure: %
viability at 48 h, 10 µM: 84

Compound: C=CC(=O)N1Cc2c(OC)ccc(OC)c2C(O)C1 (centres unmarked)
Units of measure: %
viability at 48 h, 10 µM: 135

Compound: C=CC(=O)N1CCCc2cc(C(=O)O)ccc21
Units of measure: %
viability at 48 h, 10 µM: 109

Compound: CCN1CCC(NC(=O)CCl)CC1.Cl
Units of measure: %
viability at 48 h, 10 µM: 84.1

Compound: C=CC(=O)N1CCC(C#N)(c2ccccn2)CC1
Units of measure: %
viability at 48 h, 10 µM: 110

Compound: O=C(CCl)N(C1CCCC1)C1CC1
Units of measure: %
viability at 48 h, 10 µM: 87.8

Compound: COC(=O)c1cccc(NC(=O)CCl)c1
Units of measure: %
viability at 48 h, 10 µM: 34.7

Compound: O=C(CCl)Nc1nnc(CC(F)(F)F)o1
Units of measure: %
viability at 48 h, 10 µM: 99.9

Compound: O=C(CCl)Nc1ccccc1
Units of measure: %
viability at 48 h, 10 µM: 67

Compound: O=C(CCl)NC1CS(=O)(=O)CC1Cl (centres unmarked)
Units of measure: %
viability at 48 h, 10 µM: 76.3

Compound: O=C(CCl)Nc1cc2c(cc1Cl)OCCO2
Units of measure: %
viability at 48 h, 10 µM: 68

Compound: O=C(CCl)Nc1nc(C2CC2)no1
Units of measure: %
viability at 48 h, 10 µM: 102
